tested on: RPMI-8226 leukemia; experiment: NCI tumour cell line growth inhibition, 48 h
So I've got a bunch of compounds here, and I need their TGI values.
Kindly provide the numeric value in µM only, without the unit symbol.

## Input Form field - read-out: TGI; system: RPMI-8226 leukemia; submitted item: COC1C(O)CC(OC2CC(OC3CC(O[C@@H]4C(=O)c5c(cc6cc(OC7CC(OC8CC(O)C(O)C(C)O8)C(O)C(C)O7)c(C)c(O)c6c5O)CC4[C@H](OC)C(=O)C(C)=O)OC(C)C3O)OC(C)C2O)OC1C (stereo not given in full)
## Output 0.206

## Input Field: TGI (RPMI-8226 leukemia). Entry: CN1CCC(SC2Cc3cc(Cl)ccc3Sc3ccccc32)CC1 (stereo not given)
## Output 23.3

## Input Value wanted: TGI (RPMI-8226 leukemia) of entry O=C(Nn1cc(F)c(=O)[nH]c1=O)C12CC3CC(CC(C3)C1)C2
## Output 42.5

## Input Fill in the recorded TGI for this compound, with RPMI-8226 leukemia as test system: O=C1/C(=C/c2ccc(O)c(CN3CCCCC3)c2)CCC/C1=C\c1ccc(O)c(CN2CCCCC2)c1
## Output 35.8

---

test system: HCC-2998 colon; assay: NCI tumour cell line growth inhibition, 48 h
endpoint-label: TGI (µM)
Report only the number, with the unit µM understood.

## Input Need TGI, item O=C(Cc1csc2nc(-c3ccc(Br)cc3)cn12)N/N=C/c1ccccc1
## Output 49.3

## Input Consider the molecule Cc1ccc(C2C(C(=O)C(C)(C)C)N2S(=O)(=O)c2ccc(C)cc2)cc1 (configuration not stated) and give its measured TGI.
## Output 33.6

## Input Need TGI of OC1c2c(ccc3c2CCC3)CC12Cc1ccccc1C2 (configuration not stated) , thanks.
## Output 27.5

## Input // lookup TGI for Nc1nc(N)c(-c2cccc(C(F)(F)F)c2)c(Cc2cccc(C(F)(F)F)c2)n1
## Output 11.3

## Input Can you look up the measured TGI of COc1ccc2nc3cc(Cl)ccc3c(Nc3ccc(O)c(CN4CCN(C)CC4)c3)c2c1 for me?
## Output 2.42

---

Answer each item with its documented TGI.
test system: MDA-MB-231 breast; assay: NCI tumour cell line growth inhibition, 48 h

## Input Query (compound): CC=C(CBr)CCC(Br)C(C)(C)Cl (mixture of isomers) ; field requested: TGI
## Output > 10 µM

## Input Request the reported TGI associated with Cc1cc(S(=O)(=O)O)ccc1N=Nc1c(O)ccc2ccccc12
## Output > 100 µM

## Input Which measured TGI value corresponds to COc1ccc(NC(=O)CC(=O)NN)cc1 ?
## Output > 100 µM

## Input Which TGI reading was recorded for the compound CC(C)=CCC/C(C)=C/CCC(C(=O)COCc1ccccc1)P1(=O)OC(C)(C)CN1C(C)(C)C (stereo not given) ?
## Output > 100 µM

## Input Which TGI is listed for CCN(Cc1ccccc1F)c1ccc(CO)c(Cl)c1 ?
## Output 41.7 µM

## Input Name the recorded TGI for Cc1cc(S(=O)(=O)Nc2n[nH]c(-c3ccc(Cl)cn3)n2)c(S)cc1Cl .
## Output > 100 µM

## Input Fill blank: measured TGI of the compound Cc1cc(-c2ccc[nH]2)on1 is ____.
## Output > 100 µM

## Input Please give the measured TGI for this compound: CCN(CC)CCOc1cccc2nc3c(cc12)Cn1c-3cc2c(c1=O)COC(=O)C2(O)CC (stereo not given)
## Output 46.4 µM

## Input What does the record list as TGI for Cc1nc2ccc(Nc3nc(Cl)nc(Nc4ccc(F)cc4)n3)cc2n1Cc1ccccc1 ?
## Output 20.4 µM

## Input Which TGI is reported for this compound? OCc1cn(Cc2ccc(Cl)cc2)c2ccccc12
## Output 25.6 µM
